biological target: T1, human ACVR2A (human, UniProt P27037 20-135, limits assumed); experiment: ELISA; also: test concentration or dose not given here
T1 construct: also called activin receptor, type II A
T1 sequence (P27037 20-135 limits assumed): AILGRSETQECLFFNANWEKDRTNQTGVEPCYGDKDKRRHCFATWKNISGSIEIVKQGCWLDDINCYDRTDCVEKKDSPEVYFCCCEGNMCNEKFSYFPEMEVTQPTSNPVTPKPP
Quantity Kind: optical density (OD)
Value expressed in OD; do not type the unit.

Binder | optical density / OD
365_E08 (antibody, V domains shown, VH and VL only) VH: EVQLLESGGGLVQPGGSLRLSCAASGFTFDSYSMNWVRQAPGKGLEWVSGINYNSGYTSYADSVKGRFTISRDNSKNTLYLQMNSLRAEDTAVYYCARSATWHDTHLDYWGQGTLVTVSS VL: DIQMTQSPSSLSASVGDRVTITCRASQSIISYVNWYQQKPGKAPKLVIYAATSLASGVPSRFSGSGSGTDFTLTISSLQPEDFATYYCQQSYDLPLTFGGGTKVEIK | 2.59
371_B10 (antibody, V domains shown, VH and VL only) VH: EVQLLESGGGLVQPGGSLRLSCAASGFTFDSYSMNWVRQAPGKGLEWVSNINYNGGYTGYADSVKGRFTISRDNSKNTLYLQMNSLRAEDTAVYYCARSATWHDTHLDYWGQGTLVTVSS VL: DIQMTQSPSSLSASVGDRVTITCRASQSIVSYVNWYQQKPGKAPKLLIYAATSRASGVPSRFSGSGSGTDFTLTISSLQPEDFATYYCQQSYDLPLTFGGGTKVEIK | 3.31

# evaluate next
Assign optical density to the following record: 376_G01 (antibody, V domains shown, VH and VL only) VH: EVQLLESGGGLVQPGGSLRLSCAASGFTFDDYSMNWVRQAPGKGLEWVSGINYNSGYKSYADSVKGRFTISRDNSKNTLYLQMNSLRAEDTAVYYCARSATWHDTHLDYWGQGTLVTVSS VL: DIQMTQSPSSLSASVGDRVTITCRASQSILSYVNWYQQKPGKAPKLVIYAVTSRASGVPSRFSGSGSGTDFTLTISSLQPEDFATYYCQQSYELPLTFGGGTKVEIK
3.34
